Cited source for all entries: the NIST ThermoML archive (doi:10.1016/j.jct.2015.08.040)

details: 318.15 K; 100 kPa; Liquid; Vibrating tube method
measurementType: mass density (kg/m3)

[[record]]
compound = "OCc1ccccc1 [benzenemethanol]"
readoutvalue = 1025.59

[[record]]
compound = "CCOCCO [2-ethoxyethan-1-ol]"
readoutvalue = 906.9

[[record]]
compound = "COCCO [2-methoxyethan-1-ol]"
readoutvalue = 941.89

[[record]]
compound = "CCCCOCCO [2-butoxyethan-1-ol]"
readoutvalue = 879.42

